Just for reference, the supplement of paper PMC10567573 is where these values come from.

Recorded measurements of protein stability index, one per entry
B1: CCDC89 (parent)
chain: LNAELEEKMMQEAEKLKAQGEYSR

Variants of: B1
Assay: protein stability index of a GFP-peptide fusion (GPS, HEK-293T) (PSI 1-6); higher = more stable;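 note: lentivirally expressed fusions sorted by FACS into six bins by GFP to DsRed ratio, PSI derived from sequencing read proportions per bin multiplied by bin number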
Settings: c terminus: a fixed tail appended

mutation.id: L1E
protein stability index: 4.91

mutation.id: K8A
protein stability index: 4.9

mutation.id: K8W
protein stability index: 4.5

mutation.id: E6V
protein stability index: 3.04

mutation.id: Q11G
protein stability index: 5.18

mutation.id: A18G
protein stability index: 4.43

mutation.id: E21H
protein stability index: 4.47

mutation.id: A13K
protein stability index: 5.08

mutation.id: L5K
protein stability index: 4.53

mutation.id: L1V
protein stability index: 4.41

mutation.id: L16A
protein stability index: 5.1

mutation.id: K8I
protein stability index: 4.25

mutation.id: S23G
protein stability index: 5.13

mutation.id: M10H
protein stability index: 5.11

mutation.id: K15Y
protein stability index: 4.3

mutation.id: Q11I
protein stability index: 4.96

mutation.id: N2A
protein stability index: 4.98

mutation.id: M9Q
protein stability index: 4.79

mutation.id: R24S
protein stability index: 5.38

mutation.id: A3H
protein stability index: 4.71

mutation.id: G20L
protein stability index: 2.99

mutation.id: E21I
protein stability index: 4.62

mutation.id: R24H
protein stability index: 5.78

mutation.id: Y22L
protein stability index: 5.34

mutation.id: E6R
protein stability index: 4.36

mutation.id: K8R
protein stability index: 4.98

mutation.id: Q19I
protein stability index: 3.83

mutation.id: S23H
protein stability index: 3.95

mutation.id: Q11F
protein stability index: 4.14

mutation.id: Q11P
protein stability index: 4.75

mutation.id: E7C
protein stability index: 5

mutation.id: E7H
protein stability index: 4.5

mutation.id: M10L
protein stability index: 5.46

mutation.id: E12P
protein stability index: 5.4

mutation.id: E7Y
protein stability index: 4.61

mutation.id: E12N
protein stability index: 4.75

mutation.id: E4W
protein stability index: 3.12

mutation.id: Q19S
protein stability index: 5.19

mutation.id: A13I
protein stability index: 4.38

mutation.id: S23N
protein stability index: 4.51

mutation.id: L5V
protein stability index: 5.09

mutation.id: K15R
protein stability index: 4.84

mutation.id: S23W
protein stability index: 4.97

mutation.id: E6C
protein stability index: 4.69

mutation.id: L5S
protein stability index: 5.38

mutation.id: E7D
protein stability index: 4.81
